FYI, the data here is from ChEMBL document CHEMBL5380837.

# assayed system: Peroxisome proliferator-activated receptor delta (Homo sapiens) (UniProt Q03181)
# Sequence (Q03181 whole entry): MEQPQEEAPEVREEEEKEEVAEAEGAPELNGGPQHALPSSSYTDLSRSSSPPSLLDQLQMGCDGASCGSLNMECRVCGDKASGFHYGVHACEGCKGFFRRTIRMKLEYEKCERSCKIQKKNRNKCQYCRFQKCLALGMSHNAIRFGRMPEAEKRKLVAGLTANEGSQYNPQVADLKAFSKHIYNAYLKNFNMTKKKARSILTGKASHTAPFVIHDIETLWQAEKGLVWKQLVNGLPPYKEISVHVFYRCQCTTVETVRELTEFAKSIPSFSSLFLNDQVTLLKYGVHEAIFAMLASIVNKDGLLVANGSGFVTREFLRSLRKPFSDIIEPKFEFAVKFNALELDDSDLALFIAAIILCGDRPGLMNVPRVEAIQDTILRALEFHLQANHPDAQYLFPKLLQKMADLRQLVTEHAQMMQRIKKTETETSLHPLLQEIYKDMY
# test: Binding affinity to PPARdelta (unknown origin) at 30 uM by TR-FRET based LanthaScreen competitive binding assay relative to control
experimental endpoint: Activity (%)
// units = %; emit number, no label

# smiles input, Activity (%)
data = [
    ("O[C@@H]1C[C@@H]2C[C@]2(Cn2cnc3c(NCc4cccc(Br)c4)ncnc32)[C@@H]1O", 9.2),
    ("O[C@@H]1[C@H](O)[C@@H]2C[C@@H]2[C@H]1Cn1cnc2c(NCc3cccc(F)c3)ncnc21", 0.8),
    ("O[C@@H]1[C@H](O)C=C[C@H]1Cn1cnc2c(NCc3cccc(I)c3)ncnc21", 7.3),
    ("O[C@@H]1C[C@@H]2C[C@]2(Cn2cnc3c(NCc4cccc(F)c4)ncnc32)[C@@H]1O", 7.4),
]

Please examine the following record next.
Param item = `O[C@@H]1[C@H](O)C=C[C@H]1Cn1cnc2c(NCc3cccc(F)c3)ncnc21` ; retrieve measured Activity. 2.4
